biological target: UniProt P14416; assay: Adenylate cyclase assay carried out in LTK cells transfected with human Dopamine receptor D2; format: cell-based
Sequence (P14416 whole entry): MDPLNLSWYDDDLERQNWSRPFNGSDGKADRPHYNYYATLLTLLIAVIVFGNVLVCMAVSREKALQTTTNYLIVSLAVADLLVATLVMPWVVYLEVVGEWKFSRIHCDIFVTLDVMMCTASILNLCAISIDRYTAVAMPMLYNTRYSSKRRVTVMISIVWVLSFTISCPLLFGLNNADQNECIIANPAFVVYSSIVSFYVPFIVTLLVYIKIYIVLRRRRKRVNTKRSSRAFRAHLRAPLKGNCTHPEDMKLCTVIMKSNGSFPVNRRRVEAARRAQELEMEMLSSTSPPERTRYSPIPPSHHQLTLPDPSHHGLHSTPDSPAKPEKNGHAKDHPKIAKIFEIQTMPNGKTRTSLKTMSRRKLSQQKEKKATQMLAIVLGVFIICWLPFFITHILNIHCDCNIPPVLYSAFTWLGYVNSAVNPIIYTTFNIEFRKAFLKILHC
pEC50: −log10 of the molar value.
Readout name: pEC50

In the examples that follow, each entry is paired with its recorded pEC50.
>  <Structure notation>
NC[C@@H]1O[C@H](C23CC4CC(CC(C4)C2)C3)Cc2c1ccc(O)c2O

>  <Readout name>
pEC50

>  <Observed value>
< 5.40

$$$$
>  <Structure notation>
CCCc1cc2c(s1)CN[C@H]1CCc3cc(O)c(O)cc3[C@H]21

>  <Readout name>
pEC50

>  <Observed value>
< 5.00

$$$$

Proceeding to the next molecule to report its pEC50.
Fill in: pEC50 on UniProt P14416, entry `CCCc1cc2c(s1)CN[C@@H]1CCc3cc(O)c(O)cc3[C@@H]21`
5.41
